Attribution: ChEMBL document CHEMBL2169783

- assay_procedure: Tmax in fasted Crlj:CD1(ICR) mouse at 2.6 mg/kg, po
- Assay type: ADME, organism-based
- Design: dose 2.6 mg/kg, route oral
- recorded_conditions: in vivo
quantity_measured: Tmax (min)
Supply the numeric figure in min, leaving out any unit text.

Quick note, Tmax for CC(C)c1ccc(Cc2ccc3c(c2)[C@]2(OC3)O[C@H](CO)[C@@H](O)[C@H](O)[C@H]2O)cc1 landed at 26.4

###

- assay_procedure: AUC (infinity) in fasted cynomolgus monkey at 1 mg/kg, iv
- Format: ADME, organism-based, Macaca fascicularis
- Design: time infinity, dose 1 mg/kg, route intravenous
- recorded_conditions: plasma
Property: AUC(0-inf); scope: individual molecules
All answers are understood in ng·h/mL, so give the number only.

CCc1ccc(Cc2ccc3c(c2)[C@]2(OC3)O[C@H](CO)[C@@H](O)[C@H](O)[C@H]2O)cc1 [TOFOGLIFLOZIN ANHYDROUS] | 2740

Now examine the next entry.
In plain terms, CC(C)c1ccc(Cc2ccc3c(c2)[C@]2(OC3)O[C@H](CO)[C@@H](O)[C@H](O)[C@H]2O)cc1 has a documented AUC(0-inf) of 3370
